Tested on: NCI-H226
assay-overview: Anticancer activity against human NCI-H226 cells assessed as cell growth inhibition incubated for 48 hrs by SRB method
Assay type: functional
Classify: satisfied when GI50 is strictly less than 2000 nM; not satisfied when GI50 is not.

C=C1C(=O)O[C@H]2[C@H]1CC/C(COC(=O)NCc1ccccc1OC)=C\CC[C@@]1(C)O[C@@H]21 | not satisfied

Confirm or reject: GI50 of C=C1C(=O)O[C@H]2[C@H]1CC/C(COC(=O)NCCc1ccc(Br)cc1)=C\CC[C@@]1(C)O[C@@H]21 lies strictly below 2000 nM
satisfied

====

Reported GI50 values for a set of compounds
Tested on: K562
assay-overview: Anticancer activity against human K562 cells assessed as cell growth inhibition incubated for 48 hrs by SRB method
Type: functional
Enter the number, and then the unit.

C=C1C(=O)O[C@H]2[C@H]1CC/C(COC(=O)NCc1ccc(OC)cc1)=C\CC[C@@]1(C)O[C@@H]21 | 370 nM
C=C1C(=O)O[C@H]2[C@H]1CC/C(COC(=O)NCCc1cccc(OC)c1)=C\CC[C@@]1(C)O[C@@H]21 | 610 nM
C=C1C(=O)O[C@H]2[C@H]1CC/C(COC(=O)NCCc1ccc(Br)cc1)=C\CC[C@@]1(C)O[C@@H]21 | 530 nM
C=C1C(=O)O[C@H]2[C@H]1CC/C(COC(=O)NCCc1ccc(OC)cc1)=C\CC[C@@]1(C)O[C@@H]21 | 3080 nM

For C=C1C(=O)O[C@H]2[C@H]1CC/C(COC(=O)NCc1cc(OC)cc(OC)c1)=C\CC[C@@]1(C)O[C@@H]21 , write its GI50.
1570 nM

For C=C1C(=O)O[C@H]2[C@H]1CC/C(COC(=O)NCc1ccccc1OC)=C\CC[C@@]1(C)O[C@@H]21 , write its GI50.
820 nM

====

Reported GI50 values for a set of molecules
Test system: HT-29
assay-overview: Anticancer activity against human HT29 cells assessed as cell growth inhibition incubated for 48 hrs by SRB method
Type: functional
Please state the figure in nM; there is no need to write the unit.

Previously resolved entries follow.
C=C1C(=O)O[C@H]2[C@H]1CC/C(COC(=O)NCCc1ccc(Br)cc1)=C\CC[C@@]1(C)O[C@@H]21 | 1320
C=C1C(=O)O[C@H]2[C@H]1CC/C(COC(=O)NCc1cc(OC)cc(OC)c1)=C\CC[C@@]1(C)O[C@@H]21 | 1200
C=C1C(=O)O[C@H]2[C@H]1CC/C(COC(=O)NCc1ccc(OC)cc1)=C\CC[C@@]1(C)O[C@@H]21 | 260
C=C1C(=O)O[C@H]2[C@H]1CC/C(COC(=O)NCc1ccccc1OC)=C\CC[C@@]1(C)O[C@@H]21 | 1220
C=C1C(=O)O[C@H]2[C@H]1CC/C(COC(=O)NCCc1ccc(OC)cc1)=C\CC[C@@]1(C)O[C@@H]21 | 2150

Enter recorded GI50 with HT-29 for C=C1C(=O)O[C@H]2[C@H]1CC/C(COC(=O)NCCc1cccc(OC)c1)=C\CC[C@@]1(C)O[C@@H]21 here.
1140

====

Test system: LOX IMVI
assay-overview: Anticancer activity against human LOX IMVI cells assessed as cell growth inhibition incubated for 48 hrs by SRB method
Assay type: functional
recorded-endpoint: GI50

C=C1C(=O)O[C@H]2[C@H]1CC/C(COC(=O)NCCc1ccc(Br)cc1)=C\CC[C@@]1(C)O[C@@H]21 | 1180 nM
C=C1C(=O)O[C@H]2[C@H]1CC/C(COC(=O)NCc1ccc(OC)cc1)=C\CC[C@@]1(C)O[C@@H]21 | 270 nM
C=C1C(=O)O[C@H]2[C@H]1CC/C(COC(=O)NCc1ccccc1OC)=C\CC[C@@]1(C)O[C@@H]21 | 1430 nM

For C=C1C(=O)O[C@H]2[C@H]1CC/C(COC(=O)NCCc1ccc(OC)cc1)=C\CC[C@@]1(C)O[C@@H]21 , write its GI50.
1380 nM

For C=C1C(=O)O[C@H]2[C@H]1CC/C(COC(=O)NCc1cc(OC)cc(OC)c1)=C\CC[C@@]1(C)O[C@@H]21 , write its GI50.
540 nM

For C=C1C(=O)O[C@H]2[C@H]1CC/C(COC(=O)NCCc1cccc(OC)c1)=C\CC[C@@]1(C)O[C@@H]21 , write its GI50.
1340 nM
